Details: cell viability/%
Where a SMILES comes first, the peptide text is derived from it. [ ]: non-standard residue; d: D form. The star is where a group is joined. NHCH2CH2OH = OCCN*; For = O=C*
viability values for the compounds below.
reported.endpoint: viability (%)

1. CC(C)C[C@@H](NC(=O)[C@H](C)NC(=O)[C@H](NC(=O)[C@H](C)NC(=O)CNC(=O)[C@@H](NC=O)C(C)C)C(C)C)C(=O)N[C@H](C(=O)N[C@@H](C(=O)N[C@@H](Cc1c[nH]c2ccccc12)C(=O)N[C@@H](C(=O)N[C@@H](Cc1c[nH]c2ccccc12)C(=O)N[C@H](CC(C)C)C(=O)N[C@@H](Cc1c[nH]c2ccccc12)C(=O)N[C@@H](C(=O)N[C@@H](Cc1c[nH]c2ccccc12)C(=O)NCCO)C(C)C)C(C)C)C(C)C)C(C)C [compound 11268] (For-VGA[dV]A[dL]V[dV]W[dV]W[dL]W[dV]W-NHCH2CH2OH) ... 100
2. CNC(=O)C[C@@H](NC(=O)[C@H](C)NC(=O)[C@H](NC(=O)[C@H](C)NC(=O)CNC(=O)[C@@H](NC=O)C(C)C)C(C)C)C(=O)N[C@H](C(=O)N[C@@H](C(=O)N[C@@H](Cc1c[nH]c2ccccc12)C(=O)N[C@H](CC(C)C)C(=O)N[C@@H](Cc1c[nH]c2ccccc12)C(=O)N[C@@H](C(=O)N[C@@H](Cc1c[nH]c2ccccc12)C(=O)N[C@H](CC(C)C)C(=O)N[C@@H](Cc1c[nH]c2ccccc12)C(=O)NCCO)C(C)C)C(C)C)C(C)C [compound 12938] (For-VGA[dV]A[dD](NHMe)V[dV]W[dL]W[dV]W[dL]W-NHCH2CH2OH) ... 100
